B1: CPEB3 Ribozyme (parent)
chain: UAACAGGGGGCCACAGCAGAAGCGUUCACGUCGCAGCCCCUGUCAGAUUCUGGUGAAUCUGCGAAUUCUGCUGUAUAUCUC

variants of: B1; experiment: self-cleavage, relative activity (ratio to wild type); higher = more cleavage; in vitro, sequencing
Lab note: compare self-cleavage against 0.4. Equal or greater, write t. Smaller, write f.

Worked cases, answers included:
• U25C G33U = f
• G30U U72C = f
• U43C C79U = t
• A20C U66C = f
• A47U U74A = t

Test whether the variant C50U G61A records self-cleavage of 0.4 or higher.
t

Could you verify whether the entry U1C U49C shows self-cleavage of no less than 0.4?
f

Say whether C37U A77U shows self-cleavage of 0.4 or more.
t

Please tell me: is the variant A13U C14U at or over 0.4 in terms of self-cleavage?
t

State whether the measured self-cleavage reaches 0.4, counting equality as reaching it, for U1A C23G
f

Answer whether self-cleavage of G55C A57G is greater than or equal to 0.4.
f

Given the entry C38A C40U , answer whether its self-cleavage meets or surpasses 0.4.
f

Could you verify whether the entry G42U G53A shows self-cleavage of no less than 0.4?
f

Tell me whether self-cleavage is at least 0.4 here: C62A U80C
f

Evaluate U26C A57C : self-cleavage at minimum 0.4?
f

Exam item: decide whether the reported self-cleavage for U72G U76A is at least 0.4.
t

Answer whether self-cleavage of C59A A65G is greater than or equal to 0.4.
f

Determine whether measured self-cleavage meets or exceeds 0.4 for A15C U78A
t

Entry G9U A15U : is its self-cleavage no less than 0.4?
f

Test whether the variant A56G G63U records self-cleavage of 0.4 or higher.
t
